Provide the recorded cytotoxicity at 70.5 h for the entries that follow.
# Assay name: Human HepG2 cell viability assay in 384 well format
# Type: toxicity, cell-based
# Design: dose 125 nL, time 70.5 hour; concentration not given beside the values
# Assay setup: HepG2 cells, read-out: Inhibition
Give bare numbers, in %.

Consider the reported cytotoxicity at 70.5 h for these compounds:
Documented cytotoxicity at 70.5 h of COCCCC1(CO)CCCN(Cc2nccs2)C1 (stereo unspecified) : -7.41

Documented cytotoxicity at 70.5 h of Cc1noc(C)c1CN1CCN(C(C)c2nc(C3CC3)no2)CC1 (stereo unspecified) : -3.54

Documented cytotoxicity at 70.5 h of C[C@@H]1CN2C[C@H](O)CC2CN1Cc1ccncc1 (stereo partly specified) : -3.16

Documented cytotoxicity at 70.5 h of CC(=O)N1CCCC(c2nccnc2Nc2nc(C)cc(C)n2)C1 (stereo unspecified) : 13.3

Documented cytotoxicity at 70.5 h of Cc1cnn(CC2CCCCN2C(=O)c2cccnc2N(C)C)c1 (stereo unspecified) : 9.64

Documented cytotoxicity at 70.5 h of "Cc1ccccc1-n1cc(CNc2ncnc3c2CCNCC3)cn1" : -13.6

Documented cytotoxicity at 70.5 h of O=C1N(Cc2cccnc2)CCC12CCCN(c1ncccn1)C2 (stereo unspecified) : 17.3

Documented cytotoxicity at 70.5 h of "O=C(O)Cn1ccc(=O)c2cc(F)ccc21" : -10.1

I need cytotoxicity at 70.5 h for every entry listed below, if you could help.
1. O=C(CCc1cscn1)N1CCCC1c1noc(C2CC2)n1 (stereo unspecified)
2. Nc1cc(CCCNC(=O)NC2CC2)nn1-c1ccccc1
3. O=C(NCCNc1ncccn1)c1ccc(-c2ccco2)[nH]c1=O
4. Cc1cc(C)n(CCC2CC(=O)Nc3cc(O)c(C)cc32)n1 (stereo unspecified)
5. COc1cccc(-c2noc3c2CN(c2nc(C)ncc2C)CC3)c1

[-15.3, -2.83, -2.56, -5.9, -9.61]

###

# Assay name: Human HepG2 cell viability assay in 384 well format
# Assay type: toxicity, cell-based
# Set-up: dose 125 nL, time 70.5 hour; concentration not given beside the values
# Assay setup: HepG2 cells, read-out: Inhibition
Provide the recorded cytotoxicity at 70.5 h for the entries that follow.
Give bare numbers, in %.

Documented cytotoxicity at 70.5 h of "CC(=O)NCCNC(=O)Nc1ccc(Br)cc1C(C)C" : 15.2

Documented cytotoxicity at 70.5 h of O=C(NCCNc1ncccn1)C1CC(=O)N(Cc2ccccn2)C1 (stereo not drawn) : 17.5

Read the next record carefully.
Documented cytotoxicity at 70.5 h of O=C(CCC1CCCO1)NS(=O)(=O)c1ccc(Cl)cc1 (stereo not drawn) : -5.11

###

# Assay name: Human HepG2 cell viability assay in 384 well format
# Type: toxicity, cell-based
# Set-up: dose 125 nL, time 70.5 hour; concentration not given beside the values
# Assay setup: HepG2 cells, read-out: Inhibition
Readout: cytotoxicity at 70.5 h (%)
Numbers only, in %.

I need cytotoxicity at 70.5 h for every entry listed below, if you could help.
1. O=C(CN1CCOC(Cn2cccn2)C1)NC(C1CC1)C1CC1 (stereo unspecified)
2. CCCn1nc2c(cc1=O)CN(Cc1nc(C)c(C)o1)CC2
3. CN(Cc1nnc2n1CCC2)C(=O)Cc1ccc2c(c1)OCCO2

1: -6.99; 2: -9.42; 3: -4.37

I need cytotoxicity at 70.5 h for every entry listed below, if you could help.
1. Cc1noc(C)c1CCC(=O)N1CCCC(n2cccn2)C1 (stereo unspecified)
2. CCCN1CCc2nc(SCc3c(C)cc(C)cc3C)[nH]c(=O)c2C1
3. O=C(c1ccc[nH]1)N1CCC2(CC1)C(=O)Nc1ccccc12
4. CC(C(=O)NCC(C)(C)c1ccc(Br)cc1)n1cncn1 (stereo unspecified)
5. Cc1nc(Cn2cncc(Br)c2=O)no1
6. CN(C)C(=O)CN1CCCC1c1cccc(Cc2ccccc2F)n1 (stereo unspecified)
7. O=C(c1ccc(Br)cc1F)N1CCc2ccncc21
8. Cc1cccc(-n2ncc3c2CCCC3NCc2cnn(C)c2C)c1C (stereo unspecified)

1: -0.943; 2: 4.68; 3: -14.9; 4: -12.2; 5: 6.27; 6: 0.856; 7: 3.99; 8: 3.5

###

Provide the recorded cytotoxicity at 70.5 h for the entries that follow.
# Assay name: Human HepG2 cell viability assay in 384 well format
# Format: toxicity, cell-based
# Design: dose 125 nL, time 70.5 hour; concentration not given beside the values
# Assay setup: HepG2 cells, read-out: Inhibition
One number for each entry, in %.

Documented cytotoxicity at 70.5 h of CC(C)c1nc(C2CCCN2Cc2ccncc2Cl)no1 (stereo not given) : -11.2

Documented cytotoxicity at 70.5 h of "Cc1cc2cc(C(=O)N[C@@H]3CC[C@@H](N4CCOCC4)[C@@H]3O)ccc2o1" : 24.8

I need cytotoxicity at 70.5 h for every entry listed below, if you could help.
1. Cc1oc(C(=O)O)cc1S(=O)(=O)Nc1cc(Cl)ccc1F
2. c1cnc(N2C[C@H]3CCN(CCN4CCCC4)C[C@H]3C2)cn1
3. CN(C)C(=O)CN1CCc2ncnc(N(C)C)c2CC1
4. COc1cc(Cl)c(C)cc1-n1nnc(C(=O)O)c1C

1: -7.55; 2: -5.43; 3: -6.04; 4: -2

###

Provide the recorded cytotoxicity at 70.5 h for the entries that follow.
# Assay name: Human HepG2 cell viability assay in 384 well format
# Format: toxicity, cell-based
# Set-up: dose 125 nL, time 70.5 hour; concentration not given beside the values
# Assay setup: HepG2 cells, read-out: Inhibition
One number for each entry, in %.

Consider the reported cytotoxicity at 70.5 h for these compounds:
Documented cytotoxicity at 70.5 h of Cc1n[nH]c(C)c1CCNC(=O)C1CCCN(CC(N)=O)C1 (configuration not stated) : -1.91

Documented cytotoxicity at 70.5 h of CCOc1ccc(CN2CCC(c3nc(C)cc(C)n3)C2)cc1CO (configuration not stated) : 2.12

Documented cytotoxicity at 70.5 h of Cc1cnc(C(=O)NC(COCC(C)C)c2ccco2)cn1 (configuration not stated) : -0.693

Documented cytotoxicity at 70.5 h of CN(C)CC1CSCCCN1C(=O)c1ccsc1 (configuration not stated) : -6.74

Documented cytotoxicity at 70.5 h of "O=C(c1ccc(F)c(F)c1)N1C[C@H]2CNC[C@H]2C1" : -11.5

Documented cytotoxicity at 70.5 h of "CCOC1CCN(C(=O)c2cnn(-c3ccccc3Cl)c2)CC1" : 2.04

Documented cytotoxicity at 70.5 h of "Cc1cnc(C)c(N2CCN(CCCc3ccncc3)CC2)n1" : 6.37

Documented cytotoxicity at 70.5 h of "Oc1nc(N2CCOCC2)nc2nccc(-c3ccccn3)c12" : -4.58

I need cytotoxicity at 70.5 h for every entry listed below, if you could help.
1. COc1ccc(CCNC(=O)Nc2cc(C)nn2C)cc1
2. Cn1cc(C2CCCN2c2ncnc3[nH]ccc23)cn1 (configuration not stated)
3. COCC1N(C(=O)Nc2ccccc2)[C@H]2CC[C@]1(O)CC2 (some centres not stated)
4. CCn1c(CNC(=O)Nc2nc(C)c(C)o2)nc2ccccc21

1: -2.92; 2: 5.41; 3: -7.67; 4: 14.3

I need cytotoxicity at 70.5 h for every entry listed below, if you could help.
1. CN1CCN(Cc2ccsc2)Cc2cccnc21
2. Cc1ccc(CCC(=O)N2CCn3c(nnc3C(C)C)C2)cc1Cl
3. CC(C)=CCN1C[C@H]2CC[C@@H]1CN(C(=O)CCc1n[nH]c(C)n1)C2
4. CC(=O)NCC(=O)N1CCn2cc(CN3CCN(C)CC3)nc2C1

1. -6.75
2. 24.9
3. -1.3
4. -11.5

I need cytotoxicity at 70.5 h for every entry listed below, if you could help.
1. Cc1cc(S(=O)(=O)NC(=O)CCc2cccnc2)c(C)s1
2. CCCOc1ccc(CN)c(OC(F)F)c1
3. CC(=O)N1C[C@H](NC(=O)c2csc(C(C)C)c2)[C@@H](C(C)C)C1
4. CCN1CC[C@@]2(C(=O)N3CCOCC3)CCN(C(=O)NC)CC[C@@H]12

[1.22, -3.13, 14.4, -10.8]

I need cytotoxicity at 70.5 h for every entry listed below, if you could help.
1. c1cncc(COCc2nnc3n2CCN(Cc2ccco2)C3)c1
2. Cc1nc(CN2CCN(C(=O)c3c(C)noc3C)CC2)cs1
3. CCN(Cc1noc(C)n1)C(=O)CCn1c(C)cc2ccccc21
4. O=C(CSc1ccccc1)N1CCc2c(ncnc2N2CCOCC2)C1
5. CCc1nc(CN2CCCN(C(=O)CCCOC)CC2)cs1
6. CS(=O)(=O)N1CCc2c(cccc2NC(=O)Nc2ccccn2)C1
7. CC1(C(N)=O)CN(CC2CCOCC2)CCO1 (configuration not stated)

1: 1.97; 2: -3.65; 3: -6.29; 4: 0.558; 5: 2.4; 6: 10.3; 7: 53.2
